For each of the compounds below, state its log10 of TGI.
Test system: BT-549 breast
Assay: NCI tumour cell line growth inhibition, 48 h
Give log10 of TGI, with TGI taken in µM.

Query string: Query for BT-549 breast: what log10 of TGI does the record show for `CCCCCCCCCCCCNC(=O)N[C@H](C(=O)N[C@H]1/C=C/CCNC(=O)/C=C/[C@H](C)NC1=O)C(C)C` ?
Result string: -1.15

Query string: Give recorded log10 of TGI with BT-549 breast for the following compound: `CC(=O)N(C)c1cc(NCc2ccccc2)ccc1OCc1ccccc1`
Result string: 1.61

Query string: Provide value of log10 of TGI for this record tested with BT-549 breast: `Cc1occc1C(=S)Nc1ccc(Cl)c(C(=O)OCC(C)C)c1`
Result string: 1.52

Query string: Give the reported log10 of TGI for `NC(=O)c1cc(I)ccc1NC(=O)/C=C/c1ccccc1Cl` (system: BT-549 breast).
Result string: 1.98

Query string: Form entry - test system: BT-549 breast; read-out: log10 of TGI; compound: `CCC(CC)c1cc(N[C@H]2CC[C@H](N)C2)n2nccc2n1`
Result string: 0.51

Query string: Recorded log10 of TGI for O=C(Nc1ccn(C2CC(I)C(COC(c3ccccc3)(c3ccccc3)c3ccccc3)O2)c(=O)n1)c1ccccc1 (configuration not stated) with BT-549 breast, please?
Result string: 1.83

Query string: Field: log10 of TGI (BT-549 breast). Entry: CCSc1nc(NC(C)c2ccccc2)c2cnn(CO)c2n1 (configuration not stated)
Result string: 1.81

====

System: U251 CNS
Test: NCI tumour cell line growth inhibition, 48 h
The label depends only on TGI: True if it is at least 10 µM, False if it is smaller.

Query string: Entry `O=C(Nc1ccc(Oc2ccc(NC(=O)Nc3ccccc3Cl)cc2)cc1)Nc1ccccc1Cl` : is its TGI no less than 10 µM?
Result string: True

Query string: Tell me whether TGI is at least 10 µM here: `Fc1ccc(Oc2nc3ccccc3nc2-c2ccccc2)cc1`
Result string: True

Query string: Does TGI meet or surpass 10 µM for `CCCCCCc1cc2cc(C(=O)NCc3ccccc3)c(=N)oc2cc1O` ?
Result string: True

Query string: Dear colleague, could you confirm whether `C[C@@H](Oc1ccc(Oc2cnc3ccc(Cl)cc3n2)cc1)C(=O)O` has TGI at or above 10 µM?
Result string: True

Query string: Decide: is the reported value of TGI for `O=C(O)CCNc1ncc2c(n1)-c1ccccc1OC2` equal to or greater than 10 µM?
Result string: True

Query string: Check if TGI >= 10 µM (inclusive). Item: C=CCOC1CC(n2cnc3c(N)ncnc32)OC1CO (centres undefined)
Result string: True

Query string: Could you tell me if the measured TGI of CC(O)CC(=O)CO[C@H]1[C@H](O)[C@@H](O)[C@@H](O)[C@@H]2NC(=O)c3c(cc4c(c3O)OCO4)[C@H]21 (some centres undefined) reaches 10 µM or more?
Result string: False

Query string: Could you tell me if the measured TGI of `CS(=O)(=O)O[C@H]1C(=O)N(c2cc3c4ccccc4ccc3c3ccccc23)[C@@H]1c1ccccn1` reaches 10 µM or more?
Result string: True

Query string: State whether the measured TGI reaches 10 µM, counting equality as reaching it, for Cc1ccc(N=NN(C)C(C)C(O)Cc2ccccc2)cc1 (centres undefined)
Result string: True

Query string: Decide: TGI of `O=C(O)c1ccc(NCc2nc3ccccc3[nH]2)cc1` >= 10 µM?
Result string: True

Query string: Exam item: decide whether the reported TGI for `N#Cc1sc2c(c1OC(=O)c1ccc(Cl)cc1)c(=O)n(-c1ccccc1)c(=S)n2-c1ccccc1` is at least 10 µM.
Result string: True

Query string: Given `COC1=CC(=O)c2c(c(COC(C)=O)cn2C)C1=O` , state whether its TGI is at least 10 µM.
Result string: False

Query string: Say whether `COc1cccc(CCNC(=O)CC(c2ccccc2)(c2ccccc2)c2ccccc2)c1` shows TGI of 10 µM or more.
Result string: True

Query string: Decide: is the reported value of TGI for `CSC1=C(SC)C(=O)c2cn(C)c(=O)cc2C1=O` equal to or greater than 10 µM?
Result string: True

Query string: Check this compound for TGI at or above 10 µM: `COC1=CC(c2ccc[nH]2)=N/C1=C\c1[nH]c(C)c(C(=O)Oc2ccccc2)c1C`
Result string: False

Query string: // inclusive: TGI at least 10 µM? input: COc1ccc2nc3cc(Cl)ccc3c(NCCNCC(O)CO)c2c1 (centres undefined)
Result string: True

Query string: Determine whether measured TGI meets or exceeds 10 µM for `O=C(c1cc(Cl)cc(Cl)c1)N(Cc1cccnc1)C(=S)N(Cc1cccnc1)C(=O)c1cc(Cl)cc(Cl)c1`
Result string: True

Query string: Check if TGI >= 10 µM (inclusive). Item: `Cc1ccc2nc(Sc3c([N+](=O)[O-])ncn3C)[nH]c2c1`
Result string: True

Query string: Given the entry COC(=O)CC1C2(C)C3=C(C)C(c4ccoc4)CC3OC2C2OC(=O)C3(C)C=CC(=O)C1(C)C23 (centres undefined) , answer whether its TGI meets or surpasses 10 µM.
Result string: False
